Biological target: DLG2_3, Q15700
Assay: holdup assay
Set-up: key: below the threshold = too weak to quantify, mostly under pKd 3.1 to 4
Details: plain residues with an end cap or a label only (N-terminal biotin on a linker: ado-ado)
Collected pKd values appear next to each entry.

# binder, pKd
measured = [
    ("VYEVPVETKF [SLC26A3, P40879]", 3.74),
    ("VISSDDLTEL [CAPN6, Q9Y6Q1]", 3.53),
    ("TNSKQGETTV [FZD1, Q9UP38]", 3.77),
    ("RSPVATATSC [DUSP5, Q16690]", 3.7),
    ("DFKHTKSFII [JAM2, P57087]", 3.75),
    ("QKASRNESTF [POLR1D, P0DPB6]", 3.82),
    ("MQILSKPEFI [NPSR1, Q6W5P4]", 3.53),
    ("SRPHTNETSL [MCC, P23508]", 3.95),
    ("MLPANYVEAI [NEB, P20929]", 3.56),
    ("AHGSTRDQSI [KCNB1, Q14721]", 3.82),
    ("ADEMICITTL [CACNA1D, Q01668]", 3.81),
    ("PSDSVGKDVF [EGLN1, Q9GZT9]", 3.57),
    ("GDSSRKEYFI [GYPC, P04921]", 3.84),
    ("IGHEDLETAV [DGKI, O75912]", 3.96),
    ("NISARRFTLC [FAM167B, Q9BTA0]", 4.43),
    ("PLATCDETSI [SEMA4F, O95754]", 3.9),
    ("DAAHHDESNC [FMNL3, Q8IVF7]", 3.62),
    ("PLPPEEESWV [GAS2L2, Q8NHY3]", 3.86),
]
